Listed here are compounds together with their documented log10 IC50.
Molecular target: DRB1*0301 (Homo sapiens, UniProt P01903+P01911, A100K/A102G/A103R/A169T/F55Y/I96L/K41T/L162R/M171V/P40S/Q125H/Q178H/Q39Y/R42S/S66N/T106N/T262R/W38E/Y61H)
Sequence (P01903 26-254, other chains not shown): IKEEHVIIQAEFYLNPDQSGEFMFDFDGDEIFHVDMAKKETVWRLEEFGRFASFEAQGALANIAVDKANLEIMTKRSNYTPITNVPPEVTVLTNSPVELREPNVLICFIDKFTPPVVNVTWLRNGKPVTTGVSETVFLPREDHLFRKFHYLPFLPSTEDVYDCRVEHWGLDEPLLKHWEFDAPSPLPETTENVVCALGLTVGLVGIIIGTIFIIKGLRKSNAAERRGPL
Test: biochemical
Quantity Name: log10 IC50 (log10 of the value in nM)

Compound	Quantity Name	Endpoint Value
CC[C@H](C)[C@H](NC(=O)[C@H](CO)NC(=O)[C@H](CCC(N)=O)NC(=O)[C@H](CCC(=O)O)NC(=O)[C@H](CC(=O)O)NC(=O)[C@H](CCCNC(=N)N)NC(=O)CNC(=O)[C@H](CO)NC(=O)[C@@H](NC(=O)[C@@H](NC(=O)[C@H](CC(C)C)NC(=O)[C@H](CCC(N)=O)NC(=O)[C@@H](NC(=O)[C@@H](N)CC(C)C)[C@@H](C)CC)[C@@H](C)CC)C(C)C)C(=O)N[C@@H](C)C(=O)O [Flu.PB2.384]	log10 IC50	1.72
CSCC[C@H](NC(=O)[C@H](CC(C)C)NC(=O)[C@@H](NC(=O)[C@H](CC(C)C)NC(=O)[C@@H](N)CC(C)C)C(C)C)C(=O)N[C@@H](CCC(=O)O)C(=O)N[C@@H](CC(N)=O)C(=O)N[C@@H](CCC(=O)O)C(=O)N[C@@H](CCCNC(=N)N)C(=O)N[C@H](C(=O)N[C@@H](CC(C)C)C(=O)N[C@@H](CC(=O)O)C(=O)N[C@@H](Cc1ccccc1)C(=O)N[C@@H](Cc1c[nH]cn1)C(=O)N[C@@H](CC(=O)O)C(=O)O)[C@@H](C)O [Flu.HA.444]	log10 IC50	1.81
CC[C@H](C)[C@H](NC(=O)[C@H](CCSC)NC(=O)[C@@H]1CCCN1C(=O)[C@H](CC(N)=O)NC(=O)[C@@H](N)Cc1ccccc1)C(=O)N[C@H](C(=O)N[C@@H](CCC(=O)O)C(=O)N[C@@H](CC(C)C)C(=O)N[C@@H](C)C(=O)N[C@@H](CCC(=O)O)C(=O)N[C@@H](CCCCN)C(=O)N[C@H](C(=O)N[C@@H](CCSC)C(=O)N[C@@H](CCCCN)C(=O)N[C@@H](CCC(=O)O)C(=O)O)[C@@H](C)O)C(C)C [Flu.PA.12]	log10 IC50	2.87
CC[C@H](C)[C@H](NC(=O)[C@H](CCCNC(=N)N)NC(=O)[C@H](CCCCN)NC(=O)[C@@H](NC(=O)[C@H](C)NC(=O)[C@@H](NC(=O)[C@H](CCC(N)=O)NC(=O)[C@H](CO)NC(=O)[C@H](CC(=O)O)NC(=O)[C@@H](NC(=O)[C@H](CC(C)C)NC(=O)[C@@H](NC(=O)[C@H](CO)NC(=O)[C@H](CO)NC(=O)[C@@H](N)CC(=O)O)[C@@H](C)CC)[C@@H](C)O)[C@@H](C)O)[C@@H](C)O)C(=O)O [Flu.PB2.743]	log10 IC50	1.56
CC[C@H](C)[C@H](NC(=O)[C@H](CCSC)NC(=O)[C@H](CC(N)=O)NC(=O)[C@@H](N)CC(N)=O)C(=O)N[C@@H](CC(N)=O)C(=O)N[C@@H](CC(N)=O)C(=O)N[C@@H](CC(=O)O)C(=O)N[C@@H](CC(C)C)C(=O)NCC(=O)N1CCC[C@H]1C(=O)N[C@@H](C)C(=O)N[C@H](C(=O)N[C@@H](C)C(=O)N[C@@H](CCC(N)=O)C(=O)N[C@@H](CCSC)C(=O)O)[C@@H](C)O [Flu.PB1.535]	log10 IC50	2.72

----------
Target: DRB1*0404 (Homo sapiens, UniProt P01903+P01911, A100R/A169T/F76Y/I96L/K127E/L162R/M171V/N62H/P40V/Q125Y/R42H/S133A/S149N/S66Y/V209L/W38E)
Assay: biochemical
Format: binding
Settings: IC50 nM to purified HLA DRB1*0404

Record Smiles	IC50, nM
CC[C@H](C)[C@H](NC(=O)[C@H](CC(N)=O)NC(=O)[C@H](Cc1ccc(O)cc1)NC(=O)[C@H](CC(C)C)NC(=O)[C@H](CC(N)=O)NC(=O)[C@@H]1CCCN1C(=O)CNC(=O)CNC(=O)[C@H](CC(=O)O)NC(=O)[C@H](CO)NC(=O)[C@@H](NC(=O)[C@H](CC(C)C)NC(=O)[C@H](CC(C)C)NC(=O)CNC(=O)[C@H](C)N)C(C)C)C(=O)O	3490
CC[C@H](C)[C@H](NC(=O)[C@@H](NC(=O)[C@H](CCCNC(=N)N)NC(=O)[C@H](CCC(N)=O)NC(=O)[C@@H](NC(=O)[C@@H](NC(=O)[C@H](CCSC)NC(=O)[C@H](CCCCN)NC(=O)[C@H](CCCCN)NC(=O)[C@@H](N)[C@@H](C)O)C(C)C)[C@@H](C)O)[C@@H](C)O)C(=O)NCC(=O)N[C@@H](CCCCN)C(=O)N[C@@H](CCCCN)C(=O)N[C@@H](CCCCN)C(=O)N[C@@H](CCC(N)=O)C(=O)O	62

----------
Listed here are molecules together with their documented IC50.
Target: DRB1*1302 (Homo sapiens, UniProt P01903+P01911, A100E/A169T/K41T/L162R/M171V/P40S/Q125H/Q178H/Q39Y/Q99D/R42S/S66N/T262R/V115G/W38E/Y61H)
Sequence (P01903 26-254 limits assumed, other chains not shown): as the sequence (P01903 26-254, other chains not shown) above
Experiment: biochemical
Assay type: binding
Details: read-out: IC50 nM to purified HLA DRB1*1302

Molecule	IC50
CC[C@H](C)[C@H](NC(=O)[C@H](Cc1ccc(O)cc1)NC(=O)[C@@H](NC(=O)[C@@H](NC(=O)[C@@H]1CCCN1)[C@@H](C)O)[C@@H](C)O)C(=O)N[C@@H](CO)C(=O)N[C@H](C(=O)NCC(=O)N[C@H](C(=O)N[C@@H](CO)C(=O)N[C@H](C(=O)N[C@@H](CC(C)C)C(=O)N[C@@H](CC(N)=O)C(=O)N[C@@H](CCC(N)=O)C(=O)N[C@@H](CCCNC(=N)N)C(=O)N[C@@H](CC(C)C)C(=O)O)[C@@H](C)O)[C@@H](C)O)C(C)C [Flu.HA.210]	957 nM
CC[C@H](C)[C@H](N)C(=O)N[C@@H](CC(C)C)C(=O)N[C@@H](CO)C(=O)N[C@H](C(=O)N[C@@H](Cc1ccc(O)cc1)C(=O)N[C@@H](CO)C(=O)N[C@H](C(=O)N[C@H](C(=O)N[C@@H](C)C(=O)N[C@@H](CO)C(=O)N[C@@H](CO)C(=O)N[C@@H](CC(C)C)C(=O)N[C@@H](C)C(=O)N[C@@H](CC(C)C)C(=O)N[C@@H](C)C(=O)N[C@H](C(=O)O)[C@@H](C)CC)C(C)C)[C@@H](C)O)[C@@H](C)CC [Flu.HA.532]	7.6 nM

----------
Biological target: DRB1*0401 (Homo sapiens, UniProt P01903+P01911, A100K/A169T/F76Y/I96L/K127E/L162R/M171V/N62H/P40V/Q125Y/R42H/S133A/S149N/S66Y/V115G/V209L/W38E)
Construct: made in house; host or cells: EBV-transformed homozygous human B cell lines, transfected fibroblasts or single-allele 721.221 transfectants
Assay: biochemical
Type: binding
Settings: read-out: IC50 nM to purified HLA DRB1*0401
Listed here are compounds together with their documented IC50.

Record Smiles	IC50 (nM)
CC[C@H](C)[C@H](NC(=O)[C@H](CC(C)C)NC(=O)[C@@H](N)Cc1ccccc1)C(=O)N[C@@H](CC(C)C)C(=O)NCC(=O)N[C@@H](CCCCN)C(=O)N[C@@H](CCC(=O)O)C(=O)N[C@@H](CC(=O)O)C(=O)N[C@@H](CCCNC(=N)N)C(=O)N[C@@H](CCCNC(=N)N)C(=O)N[C@@H](Cc1ccc(O)cc1)C(=O)NCC(=O)N1CCC[C@H]1C(=O)N[C@@H](C)C(=O)N[C@@H](CC(C)C)C(=O)O	1740
CC[C@H](C)[C@H](NC(=O)CNC(=O)[C@@H](N)CCCNC(=N)N)C(=O)N[C@@H](CC(C)C)C(=O)N[C@@H](CCC(=O)O)C(=O)N[C@@H](CC(=O)O)C(=O)N[C@@H](CCC(=O)O)C(=O)N[C@@H](CCC(N)=O)C(=O)N[C@@H](CCSC)C(=O)N[C@@H](Cc1ccc(O)cc1)C(=O)N[C@@H](CCC(N)=O)C(=O)N[C@@H](CCCCN)C(=O)N[C@@H](CS)C(=O)N[C@@H](CS)C(=O)N[C@@H](CC(N)=O)C(=O)O	5740
CSCC[C@H](NC(=O)[C@H](CC(C)C)NC(=O)[C@H](CCC(=O)O)NC(=O)[C@@H](N)Cc1c[nH]c2ccccc12)C(=O)N[C@@H](CC(=O)O)C(=O)N[C@@H](CCC(=O)O)C(=O)N[C@@H](CC(=O)O)C(=O)N[C@@H](Cc1ccc(O)cc1)C(=O)N[C@@H](CCC(N)=O)C(=O)NCC(=O)N[C@@H](CCCNC(=N)N)C(=O)N[C@@H](CC(C)C)C(=O)N[C@@H](CS)C(=O)N[C@@H](CC(N)=O)C(=O)N1CCC[C@H]1C(=O)O	480
